- Measurement notes: Plasma stability assay, CD-1 mouse plasma
- Format: in vitro ADME
- Test conditions: CD-1 mouse plasma, 240 min, 10 μM, 37° C.
Assay endpoint: Plasma Stability 240 min mouse/(rat) [% remain.] (% remain.)

[
  {
    "Smiles": "COc1ccc2c(c1)-c1cccc(c1)C(=O)N(C)[C@H](C(=O)NCCN(C)C)CCC(=O)N[C@H](C)CO2",
    "Readout units": "% remain.",
    "Reported result": 86
  },
  {
    "Smiles": "C[C@H]1COc2cccc(c2)-c2cccc(c2)C(=O)N(C)[C@H](C(=O)NCc2cccnc2)CCC(=O)N1",
    "Readout units": "% remain.",
    "Reported result": 55
  },
  {
    "Smiles": "C[C@H]1COc2cccc(c2)-c2cccc(c2)C(=O)N(C)[C@H](C(=O)NCCCN2CCCC2)CCC(=O)N1",
    "Readout units": "% remain.",
    "Reported result": 88
  },
  {
    "Smiles": "C[C@H]1COc2cccc(c2)-c2cccc(c2)C(=O)N(C)[C@H](C(=O)NCCO)CCC(=O)N1",
    "Readout units": "% remain.",
    "Reported result": 100
  }
]

====

# Lookup of reported pIC50 keyed by entry
- Measured on: Human recombinant cathepsin S (Homo sapiens, UniProt P25774)
- Construct: host or cells: murine myeloma NS0 cells
- Sequence (P25774 115-331): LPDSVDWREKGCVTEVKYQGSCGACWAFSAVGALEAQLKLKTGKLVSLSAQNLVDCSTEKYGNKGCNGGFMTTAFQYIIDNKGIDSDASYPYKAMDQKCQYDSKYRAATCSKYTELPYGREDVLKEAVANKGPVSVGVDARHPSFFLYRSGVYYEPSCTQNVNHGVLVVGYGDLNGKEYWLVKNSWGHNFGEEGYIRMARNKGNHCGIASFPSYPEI
- Measurement notes: Cathepsin S (CatS) enzyme assay
- Type: biochemical
pIC50: −log10 of the molar value.

[
  {
    "Smiles": "CN(C)CC(=O)N[C@H]1CCCN(C)C(=O)c2cccc(c2)-c2ccccc2OC[C@@H]2C[C@H](NC(=O)Cc3ccc4ccccc4c3)CN2C1=O",
    "Measured on": "Human recombinant cathepsin S (Homo sapiens, UniProt P25774)",
    "pIC50": 4.83
  },
  {
    "Smiles": "CN1CCC[C@H](NC(=O)OCc2ccccc2)C(=O)N2C[C@@H](NC(=O)Cc3ccc4ccccc4c3)C[C@H]2COc2ccccc2-c2cccc(c2)C1=O",
    "Measured on": "Human recombinant cathepsin S (Homo sapiens, UniProt P25774)",
    "pIC50": 5.44
  },
  {
    "Smiles": "CN1CCC[C@H](NC(=O)c2ccccc2)C(=O)N2C[C@@H](NC(=O)Cc3ccc4ccccc4c3)C[C@H]2COc2ccccc2-c2cccc(c2)C1=O",
    "Measured on": "Human recombinant cathepsin S (Homo sapiens, UniProt P25774)",
    "pIC50": 5.42
  },
  {
    "Smiles": "CN1CCC[C@H](NC(=O)Cc2ccccc2)C(=O)N2C[C@@H](NC(=O)Cc3ccc4ccccc4c3)C[C@H]2COc2ccccc2-c2cccc(c2)C1=O",
    "Measured on": "Human recombinant cathepsin S (Homo sapiens, UniProt P25774)",
    "pIC50": 5.50
  }
]

====

# Lookup of reported Metabolic Stability 60 min mouse/(rat) [% remain.] keyed by entry
- Measurement notes: Metabolic stability assay, CD-1 mouse microsomes
- Assay type: in vitro ADME
- Test conditions: CD-1 mouse microsomes, 60 min, 10 μM, 37° C.
Assay endpoint: Metabolic Stability 60 min mouse/(rat) [% remain.] (% remain.)

[
  {
    "Compound": "C[C@H]1COc2cccc(c2)-c2cccc(c2)C(=O)N(C)[C@H](C(=O)NCCN(C)C)CCC(=O)N1 [Ex. 84]",
    "Reported result": 71
  },
  {
    "Compound": "COc1ccc2c(c1)-c1cccc(c1)C(=O)N(C)[C@H](C(=O)NCc1cccc3ccccc13)CCC(=O)N[C@H](C)CO2 [Ex. 60]",
    "Reported result": 19
  },
  {
    "Compound": "C[C@H]1COc2cccc(c2)-c2cccc(c2)C(=O)N(C)[C@H](C(=O)NCCO)CCC(=O)N1 [Ex. 81]",
    "Reported result": 97
  },
  {
    "Compound": "C[C@H]1COc2cccc(c2)-c2cccc(c2)C(=O)N(C)[C@H](C(=O)NCc2cccnc2)CCC(=O)N1 [Ex. 75]",
    "Reported result": 48
  },
  {
    "Compound": "C[C@H]1COc2cccc(c2)-c2cccc(c2)C(=O)N(C)[C@H](C(=O)O)CCC(=O)N1 [Ex. 69]",
    "Reported result": 100
  },
  {
    "Compound": "COc1ccc2c(c1)-c1cccc(c1)C(=O)N(C)[C@H](C(=O)NCCCN)CCC(=O)N[C@H](C)CO2 [Ex. 49]",
    "Reported result": 92
  },
  {
    "Compound": "COc1ccc2c(c1)-c1cccc(c1)C(=O)N(C)[C@H](C(=O)NCC(F)(F)F)CCC(=O)N[C@H](C)CO2 [Ex. 53]",
    "Reported result": 92
  }
]

====

- Measurement notes: Plasma stability assay, human plasma
- Assay type: in vitro ADME
- Test conditions: human plasma, 240 min, 10 μM, 37° C.
Assay endpoint: Plasma Stability 240 min hum [% remain.] (% remain.)

[
  {
    "Smiles": "COc1ccc2c(c1)-c1cccc(c1)C(=O)N(C)[C@H](C(=O)NCCN(C)C)CCC(=O)N[C@H](C)CO2",
    "Assay endpoint": "Plasma Stability 240 min hum [% remain.]",
    "Reported result": 99
  },
  {
    "Smiles": "C[C@H]1COc2cccc(c2)-c2cccc(c2)C(=O)N(C)[C@H](C(=O)NC2CC2)CCC(=O)N1",
    "Assay endpoint": "Plasma Stability 240 min hum [% remain.]",
    "Reported result": 100
  },
  {
    "Smiles": "COc1ccc2c(c1)-c1cccc(c1)C(=O)N(C)[C@H](C(N)=O)CCC(=O)N[C@H](C)CO2",
    "Assay endpoint": "Plasma Stability 240 min hum [% remain.]",
    "Reported result": 97
  },
  {
    "Smiles": "C[C@H]1COc2cccc(c2)-c2cccc(c2)C(=O)N(C)[C@H](C(=O)NCC(=O)O)CCC(=O)N1",
    "Assay endpoint": "Plasma Stability 240 min hum [% remain.]",
    "Reported result": 85
  },
  {
    "Smiles": "C[C@H]1COc2cccc(c2)-c2cccc(c2)C(=O)N(C)[C@H](C(=O)NCCc2ccccc2)CCC(=O)N1",
    "Assay endpoint": "Plasma Stability 240 min hum [% remain.]",
    "Reported result": 89
  },
  {
    "Smiles": "CNC(=O)[C@@H]1CCC(=O)N[C@@H](C)COc2cccc(c2)-c2cccc(c2)C(=O)N1C",
    "Assay endpoint": "Plasma Stability 240 min hum [% remain.]",
    "Reported result": 99
  }
]

====

# Lookup of reported Plasma Stability 240 min hum [% remain.] keyed by entry
- Measurement notes: Plasma stability assay, human plasma
- Format: in vitro ADME
- Test conditions: human plasma, 240 min, 10 μM, 37° C.
Assay endpoint: Plasma Stability 240 min hum [% remain.] (% remain.)

[
  {
    "Smiles": "C[C@H]1COc2cccc(c2)-c2cccc(c2)C(=O)N(C)[C@H](C(=O)NCCO)CCC(=O)N1",
    "Reported result": 88
  },
  {
    "Smiles": "C[C@H](NC(=O)[C@@H]1CCC(=O)N[C@@H](C)COc2cccc(c2)-c2cccc(c2)C(=O)N1C)c1ccccc1",
    "Reported result": 88
  },
  {
    "Smiles": "COCCNC(=O)[C@@H]1CCC(=O)N[C@@H](C)COc2cccc(c2)-c2cccc(c2)C(=O)N1C",
    "Reported result": 96
  },
  {
    "Smiles": "COc1ccc2c(c1)-c1cccc(c1)C(=O)N(C)[C@H](C(=O)NCCCN)CCC(=O)N[C@H](C)CO2",
    "Reported result": 95
  }
]

====

- Measured on: Bombesin receptor subtype 3 (BB3 receptor) (Homo sapiens)
- Construct: expressed in transfected cells; host or cells: Ca2+ optimized hematopoietic cell lines (rat)
- Sequence (P32247 whole entry, species assumed): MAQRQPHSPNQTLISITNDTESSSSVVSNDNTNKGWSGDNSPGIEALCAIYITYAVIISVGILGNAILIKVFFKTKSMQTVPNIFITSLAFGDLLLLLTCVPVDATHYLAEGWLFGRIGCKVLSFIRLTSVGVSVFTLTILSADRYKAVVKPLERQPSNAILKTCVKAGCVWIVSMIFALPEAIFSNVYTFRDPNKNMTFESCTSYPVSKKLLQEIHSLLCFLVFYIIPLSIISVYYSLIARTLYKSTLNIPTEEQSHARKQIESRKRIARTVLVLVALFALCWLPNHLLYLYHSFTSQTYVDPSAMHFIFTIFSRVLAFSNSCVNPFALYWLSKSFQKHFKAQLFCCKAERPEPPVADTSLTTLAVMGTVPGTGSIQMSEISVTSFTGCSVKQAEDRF
- Measurement notes: Ca2+ flux (FLIPR) assay, BB3 receptor, agonist/antagonist mode
- Type: cell-based
- Test conditions: agonist mode, 12.5 μM
# Lookup of reported Agonist activity % activation at 12.5 μM keyed by entry

[
  {
    "Smiles": "CN1CC[C@H](NC(=O)Cc2ccc3ccccc3c2)C(=O)N2C[C@@H](O)C[C@H]2COc2ccsc2-c2cc(n(C)n2)C1=O",
    "Agonist activity % activation at 12.5 μM, %": 84
  },
  {
    "Smiles": "CO[C@H]1C[C@H]2COc3ccsc3-c3cc(n(C)n3)C(=O)N(C)CC[C@H](NC(=O)Cc3ccc4ccccc4c3)C(=O)N2C1",
    "Agonist activity % activation at 12.5 μM, %": 60
  },
  {
    "Smiles": "CN1CC[C@H](NCCc2ccc3ccccc3c2)C(=O)N2C[C@@H](O)C[C@H]2COc2ccsc2-c2cc(n(C)n2)C1=O",
    "Agonist activity % activation at 12.5 μM, %": 39
  },
  {
    "Smiles": "CN1CC[C@H](NC(=O)Cc2cccc3ccccc23)C(=O)N2C[C@@H](O)C[C@H]2COc2ccsc2-c2cc(n(C)n2)C1=O",
    "Agonist activity % activation at 12.5 μM, %": 61
  }
]
